All figures here come from ChEMBL document CHEMBL2029242.

Experiment: AUC (infinity) in athymic nude mouse at 100 mg/kg, po
Format: ADME, organism-based
Design: time infinity, dose 100 mg/kg, route oral
Conditions: plasma
Readout: AUC(0-inf) (µM·h)
Respond with the bare value in µM·h.

query: State its AUC(0-inf) for this compound: COc1cc2ncnc(Oc3cccc(NC(=O)Nc4cc(C(C)(C)C(F)(F)F)on4)c3)c2cc1OC
result: 394

* * *

Target: RAF proto-oncogene serine/threonine-protein kinase (Homo sapiens, UniProt P04049)
Sequence (P04049 whole entry): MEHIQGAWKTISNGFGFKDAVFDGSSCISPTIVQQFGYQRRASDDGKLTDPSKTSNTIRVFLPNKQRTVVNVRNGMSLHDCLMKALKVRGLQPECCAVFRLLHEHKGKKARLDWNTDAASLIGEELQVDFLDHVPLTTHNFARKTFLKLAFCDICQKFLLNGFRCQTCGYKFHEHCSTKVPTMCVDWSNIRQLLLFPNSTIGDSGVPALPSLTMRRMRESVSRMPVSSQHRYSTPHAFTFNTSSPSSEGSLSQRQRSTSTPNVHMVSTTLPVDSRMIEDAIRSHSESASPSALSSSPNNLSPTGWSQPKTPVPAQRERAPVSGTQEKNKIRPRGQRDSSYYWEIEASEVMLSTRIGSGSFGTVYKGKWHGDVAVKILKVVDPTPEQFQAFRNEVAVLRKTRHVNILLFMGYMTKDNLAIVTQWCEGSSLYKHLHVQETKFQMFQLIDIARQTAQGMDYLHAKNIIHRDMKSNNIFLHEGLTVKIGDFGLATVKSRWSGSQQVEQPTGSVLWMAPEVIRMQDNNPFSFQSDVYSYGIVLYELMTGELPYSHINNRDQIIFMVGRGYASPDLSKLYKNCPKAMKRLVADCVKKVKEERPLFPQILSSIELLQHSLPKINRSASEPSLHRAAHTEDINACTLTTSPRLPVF
Assay: Inhibition of CRAF in human HEK293 cells after 1 hr by competition binding assay
Readout: Kd (µM)
Respond with the bare value in µM.

query: Using RAF proto-oncogene serine/threonine-protein kinase (Homo sapiens, UniProt P04049) as the test system, report measured Kd of COc1cc2ncnc(Oc3cccc(NC(=O)Nc4cc(C(C)(C)C(F)(F)F)on4)c3)c2cc1OC [CEP-32496] .
result: 0.039
